molecular target: NLK (Homo sapiens (Human)); assay: KinaseProfiler off-target kinase profiling; format: biochemical; details: 10 μM, ATP near Km
Sequence (Q9UBE8 whole entry): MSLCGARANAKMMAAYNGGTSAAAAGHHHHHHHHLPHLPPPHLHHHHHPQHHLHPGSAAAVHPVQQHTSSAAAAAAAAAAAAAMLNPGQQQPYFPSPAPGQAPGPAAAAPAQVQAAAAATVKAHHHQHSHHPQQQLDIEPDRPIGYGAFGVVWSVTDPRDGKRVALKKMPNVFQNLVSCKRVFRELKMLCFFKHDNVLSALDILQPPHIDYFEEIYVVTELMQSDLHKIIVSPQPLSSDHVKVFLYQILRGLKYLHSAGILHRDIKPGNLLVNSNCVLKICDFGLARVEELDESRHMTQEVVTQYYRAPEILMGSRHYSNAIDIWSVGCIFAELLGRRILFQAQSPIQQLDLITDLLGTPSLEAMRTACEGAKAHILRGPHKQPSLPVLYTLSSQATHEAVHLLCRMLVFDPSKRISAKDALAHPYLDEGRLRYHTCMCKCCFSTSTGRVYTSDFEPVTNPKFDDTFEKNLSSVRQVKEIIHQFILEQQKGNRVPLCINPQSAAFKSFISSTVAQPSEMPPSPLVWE
reported endpoint: Avg. POC (POC)

COCc1ccc2c(c1)C(NC(=O)Nc1c(C)c(-c3cnn(C)c3)nn1-c1ccccc1)COC2 (stereo not shown) [Example 32]: 125.5
Cc1c(-c2ccc(=O)n(C)c2)nn(-c2ccccc2)c1NC(=O)NC1CN(CC(F)(F)F)Cc2ccccc21 (stereo not shown) [Example 26]: 100.5
Cc1c(-c2cnn(C)c2)nn(-c2ccccc2)c1NC(=O)N[C@H]1CCCc2ccccc21 [Example 2]: 111
Cc1c(-c2cnn(C)c2)nn(-c2ccccc2)c1NC(=O)NC1CCOc2cc(F)ccc21 (stereo not shown) [Example 12]: 115.5
